molecular target: AChE (Homo sapiens); assay: In vitro screening assay, AChE inhibition (spectrophotometric quantitation of thiocholine); format: biochemical; details: 1 μM compound; 700 μM acetylthiocholine, pH 7.4, 25° C.
Sequence (P22303 32-614): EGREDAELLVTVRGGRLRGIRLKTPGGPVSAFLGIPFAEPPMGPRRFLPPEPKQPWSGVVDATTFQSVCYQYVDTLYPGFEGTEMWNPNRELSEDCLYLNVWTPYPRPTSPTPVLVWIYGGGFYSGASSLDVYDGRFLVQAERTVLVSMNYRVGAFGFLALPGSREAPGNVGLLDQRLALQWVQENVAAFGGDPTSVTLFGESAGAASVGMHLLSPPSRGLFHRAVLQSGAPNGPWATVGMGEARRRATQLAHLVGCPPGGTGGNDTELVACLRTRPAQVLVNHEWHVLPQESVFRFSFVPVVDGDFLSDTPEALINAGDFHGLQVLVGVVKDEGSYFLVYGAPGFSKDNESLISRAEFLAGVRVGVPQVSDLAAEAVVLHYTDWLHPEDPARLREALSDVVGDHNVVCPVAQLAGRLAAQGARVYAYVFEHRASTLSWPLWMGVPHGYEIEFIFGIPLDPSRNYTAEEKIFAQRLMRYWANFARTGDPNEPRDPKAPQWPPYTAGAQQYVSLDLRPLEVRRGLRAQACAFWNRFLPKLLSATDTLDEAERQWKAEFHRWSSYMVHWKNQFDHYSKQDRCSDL
Assay readout: AChEI (%) 1 μM
Your answer is read as %, so omit the unit and give the number.

Compound	Assay readout	Measured value
CC(NC(=O)Oc1cccc([C@H](C)N(C)C)c1)C12CC3CC(CC(C3)C1)C2 (stereo partly shown) [Compound 14, S-rivastigmine-rimantadine]	AChEI (%) 1 μM	28
C[C@@H](c1cccc(OC(=O)N[C@@H]2C[C@H]2c2ccccc2)c1)N(C)C [Compound 2, S-rivastigmine-tranylcypromine]	AChEI (%) 1 μM	84
CCOC(=O)C1=C(COCCNC(=O)Oc2cccc([C@H](C)N(C)C)c2)NC(C)=C(C(=O)OC)C1c1ccccc1Cl (stereo partly shown) [Compound 12, S-rivastigmine-amlodipine]	AChEI (%) 1 μM	20

Here's the next entry for you.
Tell me AChEI (%) 1 μM reported for CC(CC1CCCCC1)N(C)C(=O)Oc1cccc([C@H](C)N(C)C)c1 (stereo partly shown) [Compound 13, S-rivastigmine-propylhexedrine]
62
